- ASSAY_SYSTEM: human PAH with the R408W mutation (Homo sapiens, UniProt P00439, R408W)
- Construct: expressed in transfected cells
- Sequence (P00439 whole entry R408W): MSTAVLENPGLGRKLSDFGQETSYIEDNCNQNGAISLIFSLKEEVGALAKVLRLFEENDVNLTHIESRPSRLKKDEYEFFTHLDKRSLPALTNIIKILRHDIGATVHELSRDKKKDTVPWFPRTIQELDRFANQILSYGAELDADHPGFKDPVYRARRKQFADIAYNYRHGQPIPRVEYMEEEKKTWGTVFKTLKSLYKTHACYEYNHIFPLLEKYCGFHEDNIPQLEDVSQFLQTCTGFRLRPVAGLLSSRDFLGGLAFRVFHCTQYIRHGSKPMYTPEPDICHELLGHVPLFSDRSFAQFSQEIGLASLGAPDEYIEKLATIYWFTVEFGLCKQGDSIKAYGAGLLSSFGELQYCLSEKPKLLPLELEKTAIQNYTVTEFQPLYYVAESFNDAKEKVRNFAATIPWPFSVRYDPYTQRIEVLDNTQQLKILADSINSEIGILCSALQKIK
- TEST: Cell Based Phenylalanine Flux Assay
- SETTINGS: A375 cells expressing human R408W PAH; 24 hrs compound incubation; 13C-Tyrosine by LC-MS; average where tested multiple times; read-out: AC50
MEASURED_ATTRIBUTE: AC50

Recorded AC50, per entry:
Prompt: Endpoint output: AC50 of O=C(c1nsc2ccccc12)N1CCc2[nH]cnc2[C@H]1c1cc2ccccc2cn1 . Value?
Completion: < 500 nM

Prompt: Next up: C[C@@H]1CN(C(=O)c2oc(-c3ccccn3)nc2C2CC2)[C@H](c2cc3ccccc3cn2)c2nc[nH]c21
Completion: < 500 nM

Prompt: Another molecule to look at: O=C(c1nnc(-c2ccn(C(F)F)n2)o1)N1CCc2[nH]cnc2[C@H]1c1cc2ccccc2cn1
Completion: < 500 nM

More entries:
Prompt: Entry O=C(c1nnc(-c2ccc(F)c(F)c2)o1)N1CCc2[nH]cnc2C1c1ccc2ccccc2n1 (stereo in doubt) [Example 70] has what AC50?
Completion: > 5000 nM

Prompt: Try O=C(c1nnc(-c2cnccn2)o1)N1CCc2[nH]cnc2[C@H]1c1ncc2ccccc2n1 next.
Completion: 500 to 1000 nM

meta.source: patent US20250262201A1
